Source listed as patent US20170210723A1.

tested on: Beet Armyworm (Spodoptera exigua); assay: Bioassays on BAW, 128-well diet tray assay; format: in vivo; conditions: Spodoptera exigua; 0.5 μg/cm^2; read-out: BAW Percent control (or mortality)

- Molecule: "Cc1cc(/C=C/C(c2cc(Cl)c(Cl)c(Cl)c2)C(F)(F)F)ccc1C(=O)N[C@H](C)CS(=O)(=O)CC(F)(F)F (stereo partly shown)"
  Tested on: "Beet Armyworm (Spodoptera exigua)"
  Scale unit: "%"
  mortality at 0.5 µg/cm2: 100
- Molecule: "C[C@H](CS(=O)(=O)CC(F)(F)F)NC(=O)c1ccc(/C=C/C(c2cc(Cl)c(Cl)c(Cl)c2)C(F)(F)F)cc1 (stereo partly shown)"
  Tested on: "Beet Armyworm (Spodoptera exigua)"
  Scale unit: "%"
  mortality at 0.5 µg/cm2: 19
- Molecule: "C[C@H](CS(=O)(=O)CC(F)(F)F)NC(=O)c1ccc(/C=C/C(c2cc(Cl)c(Cl)c(Cl)c2)C(F)(F)F)cc1C(F)(F)F (stereo partly shown)"
  Tested on: "Beet Armyworm (Spodoptera exigua)"
  Scale unit: "%"
  mortality at 0.5 µg/cm2: 100
- Molecule: "C[C@H](CS(=O)(=O)CC(F)(F)F)NC(=O)c1ccc(/C=C/C(c2cc(Cl)c(Cl)c(Cl)c2)C(F)(F)F)cc1Cl (stereo partly shown)"
  Tested on: "Beet Armyworm (Spodoptera exigua)"
  Scale unit: "%"
  mortality at 0.5 µg/cm2: 100

====

test system: Cabbage Looper (Trichoplusia ni); test: Bioassays on CL, 128-well diet tray assay; type: in vivo; details: Trichoplusia ni, 168 h; 50 μg/cm^2 on artificial diet, second instar larvae, five to seven days; read-out: CL % Control (or Mortality) rating

- Molecule: "CC(C)[C@H](C[S+]([O-])CC(F)(F)F)NC(=O)c1ccc(/C=C/C(c2cc(Cl)c(Cl)c(Cl)c2)C(F)(F)F)cc1C(F)(F)F (stereo partly drawn)"
  mortality at 50 µg/cm2: "50 to 100%"
- Molecule: "CSCC[C@@H](NC(=O)c1ccc(/C=C/C(c2cc(Cl)c(Cl)c(Cl)c2)C(F)(F)F)cc1C(F)(F)F)C(=O)NCC(F)(F)F (stereo partly drawn)"
  mortality at 50 µg/cm2: "50 to 100%"
- Molecule: "C[C@H](CSCC(F)(F)F)NC(=O)c1ccc(/C=C/C(c2cc(Br)c(Cl)c(Br)c2)C(F)(F)F)cc1C(F)(F)F (stereo partly drawn)"
  mortality at 50 µg/cm2: "50 to 100%"

====

This section presents molecules with their documented mortality at 0.05 µg/cm2 values.
test system: Cabbage Looper (Trichoplusia ni); experiment: Bioassays on CL, 128-well diet tray assay; assay type: in vivo; settings: Trichoplusia ni; 0.05 μg/cm^2; read-out: CL Percent control (or mortality)

- Molecule: "C[C@H](CS(=O)(=O)CC(F)(F)F)NC(=O)c1ccc(/C=C/C(c2cc(Cl)c(Cl)c(Cl)c2)C(F)(F)F)cc1C(F)(F)F (stereo partly shown)"
  Tested on: "Cabbage Looper (Trichoplusia ni)"
  Scale unit: "%"
  mortality at 0.05 µg/cm2: 100
- Molecule: "C[C@H](CS(=O)(=O)CC(F)(F)F)NC(=O)c1ccc(/C=C/C(c2cc(Cl)c(Cl)c(Cl)c2)C(F)(F)F)cc1 (stereo partly shown)"
  Tested on: "Cabbage Looper (Trichoplusia ni)"
  Scale unit: "%"
  mortality at 0.05 µg/cm2: 0
- Molecule: "C[C@H](CS(=O)(=O)CC(F)(F)F)NC(=O)c1ccc(/C=C/C(c2cc(Cl)c(Cl)c(Cl)c2)C(F)(F)F)cc1Cl (stereo partly shown)"
  Tested on: "Cabbage Looper (Trichoplusia ni)"
  Scale unit: "%"
  mortality at 0.05 µg/cm2: 100
- Molecule: "Cc1cc(/C=C/C(c2cc(Cl)c(Cl)c(Cl)c2)C(F)(F)F)ccc1C(=O)N[C@H](C)CS(=O)(=O)CC(F)(F)F (stereo partly shown)"
  Tested on: "Cabbage Looper (Trichoplusia ni)"
  Scale unit: "%"
  mortality at 0.05 µg/cm2: 100

====

Here, each record is paired with measured mortality at 50 µg/cm2 data.
system: Cabbage Looper (Trichoplusia ni); assay: Bioassays on CL, 128-well diet tray assay; format: in vivo; settings: Trichoplusia ni, 168 h; 50 μg/cm^2 on artificial diet, second instar larvae, five to seven days; read-out: CL % Control (or Mortality) rating
Readout type: mortality at 50 µg/cm2

- Compound: "C[C@H](CS(=O)(=O)CC(F)(F)F)NC(=O)c1ccc(/C=C/C(c2cc(F)c(F)c(F)c2)C(C)(F)F)cc1C(F)(F)F (some centres unmarked) [F136]"
  Measurement: "50 to 100%"
- Compound: "O=C(NCCS(=O)(=O)CC(F)(F)F)c1ccc(/C=C/C(c2cc(Cl)c(Cl)c(Cl)c2)C(F)(F)F)cc1Br (centres unmarked) [F10]"
  Measurement: "50 to 100%"
- Compound: "C[C@H](CS(=O)(=O)CC(F)(F)F)NC(=O)c1ccc(/C=C/C(c2cc(Cl)c(Cl)c(Cl)c2)C(F)(F)F)cc1 (some centres unmarked) [FC78]"
  Measurement: "50 to 100%"
- Compound: "C[C@H](C[S+]([O-])CC(F)(F)F)NC(=O)c1ccc(/C=C/C(c2cc(Cl)c(C#N)c(Cl)c2)C(F)(F)F)cc1C(F)(F)F (some centres unmarked) [F53]"
  Measurement: "50 to 100%"
- Compound: "C[C@H](C[S+]([O-])CC(F)(F)F)NC(=O)c1ccc(/C=C/C(c2cc(Cl)c(F)c(Cl)c2)C(F)(F)F)cc1Br (some centres unmarked) [F49]"
  Measurement: "50 to 100%"
- Compound: "C[C@H](CSCC(F)(F)F)NC(=O)c1ccc(/C=C/C(c2cc(Br)cc(Br)c2)C(F)(F)F)cc1Cl (some centres unmarked) [F64]"
  Measurement: "50 to 100%"
- Compound: "C[C@H](CS(=O)(=O)CC(F)(F)F)NC(=O)c1ccc(/C=C/C(c2cc(Cl)c(Cl)c(Cl)c2)C(F)(F)F)cc1Cl (some centres unmarked) [F58]"
  Measurement: "50 to 100%"
- Compound: "Cc1cc(/C=C/C(c2cc(Br)cc(Br)c2)C(F)(F)F)ccc1C(=O)N[C@H](C)C[S+]([O-])CC(F)(F)F (some centres unmarked) [F73]"
  Measurement: "50 to 100%"
- Compound: "O=C(NCC1([S+]([O-])CC(F)(F)F)COC1)c1ccc(/C=C/C(c2cc(Cl)c(Cl)c(Cl)c2)C(F)(F)F)cc1C(F)(F)F (centres unmarked) [F107]"
  Measurement: "50 to 100%"
- Compound: "CCc1cc(/C=C/C(c2cc(Cl)c(Cl)c(Cl)c2)C(F)(F)F)ccc1C(=O)N[C@H](C)CSCC(F)(F)F (some centres unmarked) [F54]"
  Measurement: "50 to 100%"
- Compound: "CCCSC[C@@H](C)NC(=O)c1ccc(/C=C/C(c2cc(Cl)c(Cl)c(Cl)c2)C(F)(F)F)cc1C(F)(F)F (some centres unmarked) [F70]"
  Measurement: "50 to 100%"
- Compound: "C[C@H](C[S+]([O-])CCF)NC(=O)c1ccc(/C=C/C(c2cc(Cl)c(Cl)c(Cl)c2)C(C)(F)F)cc1C(F)(F)F (some centres unmarked) [F121]"
  Measurement: "50 to 100%"
- Compound: "C[C@H](C[S+]([O-])CC(F)(F)F)NC(=O)c1ccc(/C=C/C(c2cc(Cl)c(F)c(Cl)c2)C(F)(F)F)cc1C(F)(F)F (some centres unmarked) [F37]"
  Measurement: "50 to 100%"
- Compound: "CCSC[C@@H](C)NC(=O)c1ccc(/C=C/C(c2cc(Cl)c(Cl)c(Cl)c2)C(F)(F)F)cc1C(F)(F)F (some centres unmarked) [F62]"
  Measurement: "50 to 100%"
